B1: HDV Ribozyme (parent)
chain: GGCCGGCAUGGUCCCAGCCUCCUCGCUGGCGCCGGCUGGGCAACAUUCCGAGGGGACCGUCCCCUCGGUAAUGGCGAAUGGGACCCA

Variants of: B1
experiment: self-cleavage, relative activity (ratio to wild type); higher = more cleavage; co-transcriptional
Note to self: class = bucket of self-cleavage, per Low (below 0.2), Mid (0.2 to below 0.6), High (0.6 or more)

Past entries and their recorded results:
>  <sequence-string>
GGCCGGCAUGGUCCCAGGCUCCUCGCUGGCGCCGGCUGGGCCACAUUCCGAGGGGACCGUCCCCUCGGUAAUGGCGAAUGGGACCCA [C18G A42C]

>  <group>
Low

$$$$
>  <sequence-string>
GGCCGGCAUCGUCCCAGCCUCCUCGCUGGAGCCGGCUGGGCAACAUUCCGAGGGGACCGUCCCCUCGGUAAUGGCGAAUGGGACCCA [G10C C30A]

>  <group>
Low

$$$$
>  <sequence-string>
GGCCGGCAUGGUCCCAGCCUCCUCGCUGGCGCCGGCUGGGCAACAUUCCGAGGGGACCGUCCCCCCGGAAAUGGCGAAUGGGACCCA [U65C U69A]

>  <group>
High

$$$$
>  <sequence-string>
GGCCGGCAUGGUCCCAGCCUCCUCGCUGGAGCCGGCUGGGCAACAUUCCGAGGGGACCGUCCCCUCGGUGAUGGCGAAUGGGACCCA [C30A A70G]

>  <group>
Mid

$$$$
>  <sequence-string>
GGCCGGCAUGGUCCCAGCCACCUCGCUGGCGCCGGCUGGGCAACAUUCCGAGGGGACCGUCCCCUCGGUAAUGGCGAAUGGGACCCU [U20A A87U]

>  <group>
Low

$$$$
>  <sequence-string>
GGCCGGCAUGGUCCCAGCCUCCUCGCUGGCGACGGCUGGGCAACAUUCCGAGGGGACCGUCCCCUCGGUAAGGGCGAAUGGGACCCA [C32A U72G]

>  <group>
Low

$$$$
>  <sequence-string>
GGCCGGCAUGGUCCCAGCCUCCUCGCUGGCUCCGGCUGGGCAACAUUCCGAGGUGACCGUCCCCUCGGUAAUGGCGAAUGGGACCCA [G31U G54U]

>  <group>
Mid

$$$$
>  <sequence-string>
GGCCGGCAUGGUCCCAGCCUCCUCGCUGGCGCCGGCUGGGCAACAUUCCGAGGGGACCGUCCGCUCGGUAAUGGCGAAUGGGGCCCA [C63G A83G]

>  <group>
Mid

$$$$

IN: For GGCCGGCAUGGUCCCAGCCUCCUCGCUGGCGCCGGCUGGGCAACUUUCCGAGGGGACCGUCCCUUCGGUAAUGGCGAAUGGGACCCA [A45U C64U] , which self-cleavage bin applies?
OUT: High

IN: For GGCCGGCAUGGUCCCAGCCUCCUCGCUGGCGCCGGCUGGGCAACACUCCGAGGGGAUCGUCCCCUCGGUAAUGGCGAAUGGGACCCA [U46C C57U] , which self-cleavage bin applies?
OUT: High

IN: For GGCCGGCAUGGUCCCAGCCUCCUCGCUGGCGCCGGCUGGGCAAUAUUCCGAGGGGACCGUCCCCUCGGUAAUGGCGAAAGGGACCCA [C44U U79A] , which self-cleavage bin applies?
OUT: High

IN: For GGCCGGCAUGGUCCCAGCCUCCUCGCUGGCGCCGCCUGGGCAACAUUCCGAGGGGACCGUCCCCUCGGUAAGGGCGAAUGGGACCCA [G35C U72G] , which self-cleavage bin applies?
OUT: Mid

IN: For GGCCGGCAUGGUCCCAACCUCCUCGCUGGCUCCGGCUGGGCAACAUUCCGAGGGGACCGUCCCCUCGGUAAUGGCGAAUGGGACCCA [G17A G31U] , which self-cleavage bin applies?
OUT: Low
